B1: PI4K2A (parent)
chain: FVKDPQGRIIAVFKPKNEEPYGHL

Variants of: B1
Experiment: protein stability index of a GFP-peptide fusion (GPS, HEK-293T) (PSI 1-6); higher = more stable;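 also: lentivirally expressed fusions sorted by FACS into six bins by GFP to DsRed ratio, PSI derived from sequencing read proportions per bin multiplied by bin number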
Details: c terminus: a fixed tail appended
assay-metric: protein stability index
Numbers only.

Worked cases, protein stability index given:
{"residue-change": "K14G", "protein stability index": 2.46}
{"residue-change": "V12W", "protein stability index": 1.45}
{"residue-change": "G7C", "protein stability index": 2.03}
{"residue-change": "K14I", "protein stability index": 1.97}
{"residue-change": "I9Y", "protein stability index": 1.9}
{"residue-change": "R8Y", "protein stability index": 1.6}
{"residue-change": "I9V", "protein stability index": 2.56}
{"residue-change": "P15I", "protein stability index": 2.13}
{"residue-change": "L24E", "protein stability index": 1.04}
{"residue-change": "R8I", "protein stability index": 2.72}

Hello, I would appreciate it if you could give protein stability index for each entry below.
1. G22N
2. L24P
3. P15K
4. K3M
5. R8M

Result:
1.73
2.33
2.45
1.47
2.87

Hello, I would appreciate it if you could give protein stability index for each entry below.
1. I9K
2. D4L

Result:
1: 2.63; 2: 1.11
